Origin of measurements: ChEMBL document CHEMBL2331309

Molecular target: Aldo-keto reductase family 1 member C1 (Homo sapiens) (UniProt Q04828)
Sequence (whole entry): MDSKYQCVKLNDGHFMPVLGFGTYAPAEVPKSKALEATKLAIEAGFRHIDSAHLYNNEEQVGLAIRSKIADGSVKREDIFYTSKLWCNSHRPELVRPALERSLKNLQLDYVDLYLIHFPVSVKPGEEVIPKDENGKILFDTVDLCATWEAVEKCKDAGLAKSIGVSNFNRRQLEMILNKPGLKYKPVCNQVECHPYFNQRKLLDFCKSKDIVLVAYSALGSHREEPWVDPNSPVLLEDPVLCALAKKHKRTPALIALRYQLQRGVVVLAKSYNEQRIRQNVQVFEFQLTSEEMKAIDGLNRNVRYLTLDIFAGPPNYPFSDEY
Experiment: Inhibition of human recombinant AKR1C1 expressed in Escherichia coli assessed as decrease in oxidation of 1-acenaphthenol substrate at 100 uM by spectrophotometric analysis
Reported metric: inhibition

CSc1ccc(/C=C(/C(=O)O)c2ccc(S(C)(=O)=O)cc2)cc1 ... 43.8%
O=C(O)/C(=C/c1ccccc1)c1ccccc1 ... 90.1%
CS(=O)(=O)c1ccc(/C(=C\c2cccc(Cl)c2)C(=O)O)cc1 ... 44.5%
COc1ccc(/C=C(/C(=O)O)c2cc(OC)c(OC)c(OC)c2)cc1O ... 14.4%
CS(=O)(=O)c1ccc(/C(=C\c2ccc(Cl)cc2)C(=O)O)cc1 ... 34.7%

Entry `CSc1ccc(-c2ccc(/C=C(/C(=O)O)c3ccc(S(C)(=O)=O)cc3)cc2)cc1` has what inhibition?
64.7%

====

Target: Aldo-keto reductase family 1 member C3 (Homo sapiens)
Sequence (P42330 whole entry): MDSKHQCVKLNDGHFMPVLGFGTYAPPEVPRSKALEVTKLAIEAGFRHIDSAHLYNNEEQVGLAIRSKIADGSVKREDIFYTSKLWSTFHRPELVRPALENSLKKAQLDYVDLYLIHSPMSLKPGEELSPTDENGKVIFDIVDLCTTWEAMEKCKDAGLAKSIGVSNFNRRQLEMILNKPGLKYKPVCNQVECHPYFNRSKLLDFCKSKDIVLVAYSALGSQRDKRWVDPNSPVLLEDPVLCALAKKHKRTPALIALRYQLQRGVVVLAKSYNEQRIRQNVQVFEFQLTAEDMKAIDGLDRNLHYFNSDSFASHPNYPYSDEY
Test: Inhibition of recombinant AKR1C3 (unknown origin) assessed as decrease in oxidation of 1-acenaphthenol substrate by spectrophotometric analysis
Reported metric: IC50 (µM)

CS(=O)(=O)c1ccc(/C(=C\c2cccc(Br)c2)C(=O)O)cc1 ... 13.6
CS(=O)(=O)c1ccc(/C(=C\c2ccc(C(F)(F)F)cc2)C(=O)O)cc1 ... 23.3
CS(=O)(=O)c1ccc(/C(=C\c2ccc(F)cc2)C(=O)O)cc1 ... 43.1
CS(=O)(=O)c1ccc(/C(=C\c2ccc(Cl)cc2)C(=O)O)cc1 ... 10.8
CCc1ccc(/C=C(/C(=O)O)c2ccc(S(C)(=O)=O)cc2)cc1 ... 13.6

I: CS(=O)(=O)c1ccc(/C=C(/C(=O)O)c2ccc(Cl)cc2)cc1
II: CS(=O)(=O)c1ccc(/C(=C\c2cccc(F)c2)C(=O)O)cc1
Select the item whose IC50 value is smaller, choosing between I and II . Answer by stating the label of the chosen item.
II
(II: 38.9 µM, I: 86.6 µM)

a: CS(=O)(=O)c1ccc(/C=C(/C(=O)O)c2cccc(Cl)c2)cc1
b: COc1ccc(/C=C(/C(=O)O)c2cc(OC)c(OC)c(OC)c2)cc1O
Select the item whose IC50 value is smaller, choosing between a and b . Answer by stating the label of the chosen item.
a
(a: 76.7 µM, b: 121 µM)

====

Target: Aldo-keto reductase family 1 member C2 (Homo sapiens)
Test: Inhibition of recombinant AKR1C2 (unknown origin) assessed as decrease in oxidation of 1-acenaphthenol substrate at 100 uM by spectrophotometric analysis
The source made the active and inactive calls. The calls are words filed in the database; no cut-off is given here.
Reported metric: inhibition

Some compounds with recorded inhibition:
CS(=O)(=O)c1ccc(/C=C(/C(=O)O)c2cccc(Cl)c2)cc1 ... 66.4%
CS(=O)(=O)c1ccc(/C(=C\c2cccc(O)c2)C(=O)O)cc1 ... inactive
CS(=O)(=O)c1ccc(/C(=C\c2cccc(F)c2)C(=O)O)cc1 ... 27%
CS(=O)(=O)c1ccc(/C(=C\c2ccccc2)C(=O)O)cc1 ... 27.3%
COc1ccc(/C=C(/C(=O)O)c2cc(OC)c(OC)c(OC)c2)cc1O ... 20.6%
COc1cc(/C(=C\c2cccc(F)c2)C(=O)O)cc(OC)c1OC ... 55.9%
CSc1ccc(/C=C(/C(=O)O)c2ccc(Cl)cc2)cc1 ... 75.2%
COc1ccc(/C=C(/C(=O)O)c2cccc3ccccc23)cc1OC ... 77.8%
COc1ccc(/C=C(/C(=O)O)c2ccc3ccccc3c2)cc1OC ... 39.6%
COc1cc(/C=C(/C(=O)O)c2ccc(S(C)(=O)=O)cc2)cc(OC)c1OC ... inactive

Consider the additional compound presented here.
Entry `CS(=O)(=O)c1ccc(/C(=C\c2cccc(Br)c2)C(=O)O)cc1` has what inhibition?
58.3%
